measurement_protocol: Metabolic stability test: liver microsomal stability assay
Assay type: in vitro ADME, mouse
condition_label: male, pH 7.4; mouse liver microsomes 0.5 mg protein/mL, compound 1 µM, presence of NADPH; read-out: Mouse Hepatic Microsome CLh,int NADPH(+)
Positions of bridges follow the written chain, without caps; N, C: chain ends. Non-standard residues stand in square brackets, D forms with d. Residues, ends and D or L forms follow the SMILES beside them. *: point of attachment. NMeF = CN[C@@H](Cc1ccccc1)C(=O)O; NMeL = CN[C@@H](CC(C)C)C(=O)O; NMeAbu = CC[C@H](NC)C(=O)O; NMeA = CN[C@@H](C)C(=O)O; Piperidide = C1CCN(*)CC1; Sar = CNCC(=O)O; tBu = CC(C)(C)*
endpoint: microsomal CLint at 1 µM (µL/min/mg)
Answer format: numeric, µL/min/mg implied, no suffix.

Data point: CC[C@H](C)[C@@H]1NC(=O)[C@H](C)N(C)C(=O)C[C@@H](C(=O)N2CCCCC2)NC(=O)[C@H](CC)N(C)C(=O)[C@H](COC(C)(C)C)NC(=O)[C@H](CC(C)C)N(C)C(=O)[C@H](C)N(C)C(=O)[C@H](CC(C)C)N(C)C(=O)[C@H](Cc2ccccc2)N(C)C(=O)CN(C)C(=O)[C@H]([C@@H](C)O)NC(=O)[C@H](CC(C)C)N(C)C(=O)[C@H](C(C)C)NC(=O)[C@H](Cc2ccccc2)N(C)C1=O [pd045] ([NMeA]I[NMeF]V[NMeL]T[Sar][NMeF][NMeL][NMeA][NMeL]S(tBu)[NMeAbu]D-Piperidide; lactam N-14) ; microsomal CLint at 1 µM = 43.9

---

measurement_protocol: Metabolic stability test: liver microsomal stability assay
Assay type: in vitro ADME, mouse
condition_label: mouse liver microsomes 0.5 mg protein/mL, compound 1 µM, absence of NADPH
Starred links: 1 amine or outer side, 2 acyl side, 3 side chain; linkers in the order of their positions; H or OH if unused. Positions of bridges follow the written chain, without caps; N, C: chain ends. Non-standard residues stand in square brackets, D forms with d. Residues, ends and D or L forms follow the SMILES beside them. *: point of attachment. NMeF = CN[C@@H](Cc1ccccc1)C(=O)O; NMeβAla = CN(CCC(=O)[*:2])[*:1]; NMeL = CN[C@@H](CC(C)C)C(=O)O; NMeV = CN[C@H](C(=O)O)C(C)C; Piperidide = C1CCN(*)CC1; Abu = CC[C@H](N)C(=O)O; NBuGly = CCCCNCC(=O)O
endpoint: Mouse Hepatic Microsome CLh,int NADPH(-) (µL/min/mg Protein)
Your answer is read as µL/min/mg Protein, so omit the unit and give the number.

What the record says about CCCCN1CC(=O)N[C@@H](C)C(=O)N(C)[C@@H](Cc2ccccc2)C(=O)N[C@@H](CC(C)C)C(=O)N[C@@H](C)C(=O)N(C)[C@@H](C(C)C)C(=O)N[C@H](C(=O)N2CCCCC2)CC(=O)N[C@H](C(C)C)C(=O)N(C)[C@@H](Cc2ccccc2)C(=O)N[C@@H](CC)C(=O)N(C)[C@@H](C(C)C)C(=O)N(C)CCC(=O)N[C@@H]([C@@H](C)O)C(=O)N(C)[C@@H](CC(C)C)C1=O [pd019] ([dV][NMeF][Abu][NMeV][NMeβAla]T[NMeL][NBuGly]A[NMeF]LA[NMeV]D-Piperidide; lactam N-14) : Mouse Hepatic Microsome CLh,int NADPH(-) is 24.9
